Target chain: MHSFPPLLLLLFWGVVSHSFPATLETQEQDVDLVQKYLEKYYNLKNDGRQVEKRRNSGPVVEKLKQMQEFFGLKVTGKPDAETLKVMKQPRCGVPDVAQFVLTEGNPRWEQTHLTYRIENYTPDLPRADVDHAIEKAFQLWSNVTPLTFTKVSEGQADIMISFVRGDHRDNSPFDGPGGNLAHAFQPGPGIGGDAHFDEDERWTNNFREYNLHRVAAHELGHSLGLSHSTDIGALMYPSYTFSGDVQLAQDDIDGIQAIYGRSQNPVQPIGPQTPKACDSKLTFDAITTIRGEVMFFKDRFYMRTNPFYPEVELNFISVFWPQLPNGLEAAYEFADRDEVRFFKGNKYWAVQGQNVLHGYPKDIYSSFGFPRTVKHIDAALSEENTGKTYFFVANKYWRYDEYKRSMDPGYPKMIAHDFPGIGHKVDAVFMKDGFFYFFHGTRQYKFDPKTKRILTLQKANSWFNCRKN
MEASURED_METRIC: IC50 (nM)
Give bare numbers, in nM.

>  <CHEMICAL_SMILES>
CC(C)C[C@H](CC(=O)NO)C(=O)N[C@@H](CC(C)C)c1nc2cc(C(F)(F)F)ccc2[nH]1

>  <RECORDED_NUMBER>
7

$$$$

Please go through the list and note IC50 for each compound.
1. CC(C)C[C@H](NC(=O)[C@@H](CC(=O)NO)C1CCCCC1)c1nc(-c2ccccc2)c[nH]1
2. COC(=O)c1[nH]c([C@H](CC(C)C)NC(=O)[C@@H](CC(=O)NO)CC(C)C)nc1-c1ccccc1
3. CC(C)C[C@H](CC(=O)NO)C(=O)N[C@@H](Cc1c[nH]c2ccccc12)c1nc2ccccc2[nH]1
4. COC(=O)c1ccc2nc([C@H](CC(C)C)NC(=O)[C@@H](CC(=O)NO)CC(C)C)[nH]c2c1

[480, 3500, 22, 3]

---

Molecular target: Stromelysin-1 (Homo sapiens)
Sequence (P08254 whole entry): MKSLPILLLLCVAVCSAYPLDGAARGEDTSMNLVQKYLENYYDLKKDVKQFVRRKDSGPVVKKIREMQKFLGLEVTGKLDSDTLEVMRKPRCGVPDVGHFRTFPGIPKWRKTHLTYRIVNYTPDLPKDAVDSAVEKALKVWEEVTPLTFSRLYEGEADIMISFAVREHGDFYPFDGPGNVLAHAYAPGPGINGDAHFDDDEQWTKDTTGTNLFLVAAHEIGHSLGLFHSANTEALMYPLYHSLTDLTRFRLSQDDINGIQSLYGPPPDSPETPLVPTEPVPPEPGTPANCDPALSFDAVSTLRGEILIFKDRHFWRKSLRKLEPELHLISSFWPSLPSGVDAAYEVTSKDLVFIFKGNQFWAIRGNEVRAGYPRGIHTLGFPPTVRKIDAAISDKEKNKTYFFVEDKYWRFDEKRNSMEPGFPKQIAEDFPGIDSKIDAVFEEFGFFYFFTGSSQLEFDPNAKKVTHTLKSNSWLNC
MEASURED_METRIC: IC50 (nM)
Numbers only, in nM.

>  <CHEMICAL_SMILES>
CC(C)C[C@H](CC(=O)NO)C(=O)N[C@@H](CC(C)C)c1nc2ccccc2[nH]1

>  <UNITS>
nM

>  <IC50>
8

$$$$
>  <CHEMICAL_SMILES>
CC(C)C[C@H](CC(=O)NO)C(=O)N[C@@H](CC(C)C)c1nc(-c2ccccc2)c[nH]1

>  <UNITS>
nM

>  <IC50>
112

$$$$
>  <CHEMICAL_SMILES>
COC(=O)c1ccc2nc([C@H](CC(C)C)NC(=O)[C@@H](CC(=O)NO)CC(C)C)[nH]c2c1

>  <UNITS>
nM

>  <IC50>
5

$$$$

Required: IC50, one value per compound below.
1. CC(C)C[C@H](CC(=O)NO)C(=O)N[C@@H](Cc1c[nH]c2ccccc12)c1ncc[nH]1
2. CC(C)C[C@H](CC(=O)NO)C(=O)N[C@@H](CC(C)C)c1nc2cc(C(F)(F)F)ccc2[nH]1

[280, 20]

---

Molecular target: Matrilysin (Homo sapiens, UniProt P09237)
Sequence (P09237 whole entry): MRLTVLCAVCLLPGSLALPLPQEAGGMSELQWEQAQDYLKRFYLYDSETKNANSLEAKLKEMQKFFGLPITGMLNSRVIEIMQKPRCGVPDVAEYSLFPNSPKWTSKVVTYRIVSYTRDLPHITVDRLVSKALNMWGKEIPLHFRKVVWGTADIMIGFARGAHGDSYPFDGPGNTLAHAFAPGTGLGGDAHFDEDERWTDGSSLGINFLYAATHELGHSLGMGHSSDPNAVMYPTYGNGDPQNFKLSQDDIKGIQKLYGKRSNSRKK
pIC50: −log10 of the molar value.
If the reported pIC50 equals or exceeds 8, assign satisfied. If not, assign not satisfied.

>  <CHEMICAL_SMILES>
COC(=O)c1ccc2nc([C@H](CC(C)C)NC(=O)[C@@H](CC(=O)NO)CC(C)C)[nH]c2c1

>  <CAT>
satisfied

$$$$

Exam item: decide whether the reported pIC50 for CC(C)C[C@H](CC(=O)NO)C(=O)N[C@@H](Cc1c[nH]c2ccccc12)c1ncc[nH]1 is at least 8.
not satisfied

// inclusive: pIC50 at least 8? input: CC(C)C[C@H](CC(=O)NO)C(=O)N[C@@H](CC(C)C)c1nc2ccccc2[nH]1
satisfied

Decide: pIC50 of CC(C)C[C@H](CC(=O)NO)C(=O)N[C@@H](CC(C)C)c1ncc[nH]1 >= 8?
not satisfied

Answer whether pIC50 of CC(C)C[C@H](CC(=O)NO)C(=O)N[C@@H](CC(C)C)c1nc2cc(Cl)c(Cl)cc2[nH]1 is greater than or equal to 8.
not satisfied
